self-splicing fitness (ln) values, listed per item
# test_details: self-splicing fitness, log relative to wild type (ln ratio); higher = more splicing; Tetrahymena group I intron in knt gene, E. coli kanamycin selection, DiMSum; sequences stand for … in CUCUCU…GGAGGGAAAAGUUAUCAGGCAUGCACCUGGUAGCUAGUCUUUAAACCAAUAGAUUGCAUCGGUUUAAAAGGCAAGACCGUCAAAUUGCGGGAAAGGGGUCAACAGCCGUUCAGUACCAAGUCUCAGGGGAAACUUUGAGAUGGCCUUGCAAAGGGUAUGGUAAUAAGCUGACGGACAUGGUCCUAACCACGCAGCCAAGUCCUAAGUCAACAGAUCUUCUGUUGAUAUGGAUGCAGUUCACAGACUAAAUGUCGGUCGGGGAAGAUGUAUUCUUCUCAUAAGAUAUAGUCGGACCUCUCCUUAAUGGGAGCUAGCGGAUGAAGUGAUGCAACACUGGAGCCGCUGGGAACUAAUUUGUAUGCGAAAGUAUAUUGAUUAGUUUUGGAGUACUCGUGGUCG;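 further: selection with 25 µg/mL kanamycin versus none on LB agar overnight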
# condition_label: 37 °C
property_measured: self-splicing fitness (ln)

- residue_codes: "CCCAAGCAAUAUUACGCCCG"
  property_measured: "self-splicing fitness (ln)"
  recorded_measurement: -2.44
- residue_codes: "AAUUAGCAAUAUUACGUCUU"
  property_measured: "self-splicing fitness (ln)"
  recorded_measurement: 0.46
- residue_codes: "GCUGAGCAAUAUUACGGACG"
  property_measured: "self-splicing fitness (ln)"
  recorded_measurement: -0.674
- residue_codes: "UGAUAGCAAUAUUACGCGAU"
  property_measured: "self-splicing fitness (ln)"
  recorded_measurement: -2.65
- residue_codes: "CUUCAGCAAUAUUACGCGGG"
  property_measured: "self-splicing fitness (ln)"
  recorded_measurement: -2.61
- residue_codes: "CGCAAGCAAUAUUACGCUGA"
  property_measured: "self-splicing fitness (ln)"
  recorded_measurement: -2.01
- residue_codes: "AGUAAGCAAUAUUACGAUUA"
  property_measured: "self-splicing fitness (ln)"
  recorded_measurement: 0.25
- residue_codes: "AUUCAGCAAUAUUACGGUUA"
  property_measured: "self-splicing fitness (ln)"
  recorded_measurement: -0.305
- residue_codes: "AUUUAGCAAUAUUACGGUGA"
  property_measured: "self-splicing fitness (ln)"
  recorded_measurement: -1.7
- residue_codes: "GCGGAGCAAUAUUACGAGCA"
  property_measured: "self-splicing fitness (ln)"
  recorded_measurement: -0.82
- residue_codes: "ACGCAGCAAUAUUACGGGUA"
  property_measured: "self-splicing fitness (ln)"
  recorded_measurement: -1.37
- residue_codes: "UCCAAGCAAUAUUACGAAGG"
  property_measured: "self-splicing fitness (ln)"
  recorded_measurement: -0.206
- residue_codes: "CUCAAGCAAUAUUACGCAUA"
  property_measured: "self-splicing fitness (ln)"
  recorded_measurement: -3.07
- residue_codes: "GCAAAGCAAUAUUACGUAAC"
  property_measured: "self-splicing fitness (ln)"
  recorded_measurement: -0.338
- residue_codes: "GCGUAGCAAUAUUACGACGG"
  property_measured: "self-splicing fitness (ln)"
  recorded_measurement: -2.79
- residue_codes: "CUACAGCAAUAUUACGCUGC"
  property_measured: "self-splicing fitness (ln)"
  recorded_measurement: -1.77
- residue_codes: "CGCCAGCAAUAUUACGAAGC"
  property_measured: "self-splicing fitness (ln)"
  recorded_measurement: -1.71
- residue_codes: "UCUGAGCAAUAUUACGGAAC"
  property_measured: "self-splicing fitness (ln)"
  recorded_measurement: -3.05
- residue_codes: "UUCCAGCAAUAUUACGUCUG"
  property_measured: "self-splicing fitness (ln)"
  recorded_measurement: -2.28
- residue_codes: "CAUCAGCAAUAUUACGCGCC"
  property_measured: "self-splicing fitness (ln)"
  recorded_measurement: -1.05
- residue_codes: "UAGAAGCAAUAUUACGUUGC"
  property_measured: "self-splicing fitness (ln)"
  recorded_measurement: -2.82
- residue_codes: "GCAGAGCAAUAUUACGCUGC"
  property_measured: "self-splicing fitness (ln)"
  recorded_measurement: -1.76
- residue_codes: "GGCCAGCAAUAUUACGCAUU"
  property_measured: "self-splicing fitness (ln)"
  recorded_measurement: 0.109
- residue_codes: "CAACAGCAAUAUUACGAACU"
  property_measured: "self-splicing fitness (ln)"
  recorded_measurement: -0.988
- residue_codes: "GGCCAGCAAUAUUACGUAAU"
  property_measured: "self-splicing fitness (ln)"
  recorded_measurement: -0.62
- residue_codes: "CGAGAGCAAUAUUACGAGUU"
  property_measured: "self-splicing fitness (ln)"
  recorded_measurement: -2.18
- residue_codes: "CACAAGCAAUAUUACGCUGU"
  property_measured: "self-splicing fitness (ln)"
  recorded_measurement: -2.57
- residue_codes: "UCCCAGCAAUAUUACGAUGG"
  property_measured: "self-splicing fitness (ln)"
  recorded_measurement: -2.31
- residue_codes: "AGCAAGCAAUAUUACGGGUG"
  property_measured: "self-splicing fitness (ln)"
  recorded_measurement: -0.789
- residue_codes: "CGGUAGCAAUAUUACGCCUU"
  property_measured: "self-splicing fitness (ln)"
  recorded_measurement: -0.542
- residue_codes: "AUAAAGCAAUAUUACGUCAC"
  property_measured: "self-splicing fitness (ln)"
  recorded_measurement: -3.09
- residue_codes: "GACCAGCAAUAUUACGCCUA"
  property_measured: "self-splicing fitness (ln)"
  recorded_measurement: 0.226
- residue_codes: "GUUCAGCAAUAUUACGGACG"
  property_measured: "self-splicing fitness (ln)"
  recorded_measurement: -0.428
- residue_codes: "CUGAAGCAAUAUUACGACCA"
  property_measured: "self-splicing fitness (ln)"
  recorded_measurement: -1.22
- residue_codes: "AGUGAGCAAUAUUACGGAUU"
  property_measured: "self-splicing fitness (ln)"
  recorded_measurement: -1.28
- residue_codes: "GGUAAGCAAUAUUACGUAUC"
  property_measured: "self-splicing fitness (ln)"
  recorded_measurement: -1.39
- residue_codes: "ACGAAGCAAUAUUACGCUGC"
  property_measured: "self-splicing fitness (ln)"
  recorded_measurement: -1.35
- residue_codes: "GUGAAGCAAUAUUACGCCUU"
  property_measured: "self-splicing fitness (ln)"
  recorded_measurement: -0.45
- residue_codes: "GAGUAGCAAUAUUACGAAGU"
  property_measured: "self-splicing fitness (ln)"
  recorded_measurement: -2.1
- residue_codes: "AUUCAGCAAUAUUACGUGGA"
  property_measured: "self-splicing fitness (ln)"
  recorded_measurement: -1.79
- residue_codes: "GAAAAGCAAUAUUACGGAGG"
  property_measured: "self-splicing fitness (ln)"
  recorded_measurement: -1.73
- residue_codes: "CACAAGCAAUAUUACGUCUU"
  property_measured: "self-splicing fitness (ln)"
  recorded_measurement: -2.25
- residue_codes: "UCUGAGCAAUAUUACGCGAA"
  property_measured: "self-splicing fitness (ln)"
  recorded_measurement: -1.8
- residue_codes: "AGUCAGCAAUAUUACGGGUG"
  property_measured: "self-splicing fitness (ln)"
  recorded_measurement: -0.948
- residue_codes: "CAGCAGCAAUAUUACGCGAG"
  property_measured: "self-splicing fitness (ln)"
  recorded_measurement: -1.7
- residue_codes: "AAAGAGCAAUAUUACGCCUG"
  property_measured: "self-splicing fitness (ln)"
  recorded_measurement: -1.76
- residue_codes: "AGCUAGCAAUAUUACGUCUG"
  property_measured: "self-splicing fitness (ln)"
  recorded_measurement: -1.56
- residue_codes: "UGUCAGCAAUAUUACGCUGU"
  property_measured: "self-splicing fitness (ln)"
  recorded_measurement: -1.63
- residue_codes: "CAAGAGCAAUAUUACGAGUU"
  property_measured: "self-splicing fitness (ln)"
  recorded_measurement: -2.82
- residue_codes: "UAGGAGCAAUAUUACGUUUC"
  property_measured: "self-splicing fitness (ln)"
  recorded_measurement: -2.68
- residue_codes: "GGACAGCAAUAUUACGCAGG"
  property_measured: "self-splicing fitness (ln)"
  recorded_measurement: -0.578
- residue_codes: "GGUAAGCAAUAUUACGUAGA"
  property_measured: "self-splicing fitness (ln)"
  recorded_measurement: -1.54
- residue_codes: "GACCAGCAAUAUUACGUCAG"
  property_measured: "self-splicing fitness (ln)"
  recorded_measurement: -2.85
- residue_codes: "CUAUAGCAAUAUUACGGGGU"
  property_measured: "self-splicing fitness (ln)"
  recorded_measurement: -2.83
- residue_codes: "AUGAAGCAAUAUUACGGCCG"
  property_measured: "self-splicing fitness (ln)"
  recorded_measurement: 0.947
- residue_codes: "GUUGAGCAAUAUUACGCCGG"
  property_measured: "self-splicing fitness (ln)"
  recorded_measurement: 0.442
- residue_codes: "AUCCAGCAAUAUUACGUUAG"
  property_measured: "self-splicing fitness (ln)"
  recorded_measurement: -3.56
- residue_codes: "AACAAGCAAUAUUACGGAAA"
  property_measured: "self-splicing fitness (ln)"
  recorded_measurement: -1.34
- residue_codes: "CGUAAGCAAUAUUACGCAAU"
  property_measured: "self-splicing fitness (ln)"
  recorded_measurement: -2.64
- residue_codes: "ACGUAGCAAUAUUACGUUGU"
  property_measured: "self-splicing fitness (ln)"
  recorded_measurement: -2.01
- residue_codes: "CCUCAGCAAUAUUACGGGGG"
  property_measured: "self-splicing fitness (ln)"
  recorded_measurement: -2.9
- residue_codes: "UGUAAGCAAUAUUACGUCUA"
  property_measured: "self-splicing fitness (ln)"
  recorded_measurement: 0.151
- residue_codes: "UCCUAGCAAUAUUACGACCG"
  property_measured: "self-splicing fitness (ln)"
  recorded_measurement: -3.65
- residue_codes: "GGUCAGCAAUAUUACGGACC"
  property_measured: "self-splicing fitness (ln)"
  recorded_measurement: -2.08
- residue_codes: "UUAGAGCAAUAUUACGUCGG"
  property_measured: "self-splicing fitness (ln)"
  recorded_measurement: -0.455
- residue_codes: "AUAGAGCAAUAUUACGACCU"
  property_measured: "self-splicing fitness (ln)"
  recorded_measurement: -0.988
- residue_codes: "CCCCAGCAAUAUUACGUCUA"
  property_measured: "self-splicing fitness (ln)"
  recorded_measurement: -2.84

Hey, just so you know, these numbers are from the supplement of paper PMC7877785.
